target-of-assay: HLA-A*29:02
test-method-notes: IEDB peptide-MHC binding, purified MHC/competitive/radioactivity; filed as Kd, often an IC50 or EC50 that approximates it; bounds were set here for any values at or beyond the usual limits of such assays
stated-conditions: source organism: SARS coronavirus Tor2
pKd: −log10 of the molar value.
Label satisfied when pKd is at or above 6; anything below gets not satisfied.

Ask: Check this sequence for pKd at or above 6: `KIEELFYSY`
Result: satisfied

Ask: Try this sequence next: `KFADDLNQM`
Result: satisfied

Ask: Try this sequence next: `ESASKSASVY`
Result: satisfied

Ask: Try this sequence next: `DPAKAYKDY`
Result: satisfied

Ask: Try this sequence next: `VTYNCCDDDY`
Result: not satisfied

Ask: Try this sequence next: `NSKVQIGEY`
Result: not satisfied

Ask: Try this sequence next: `KWDLIISDMY`
Result: satisfied

Ask: Try this sequence next: `FYLCFLAFLL`
Result: satisfied

Ask: Try this sequence next: `VWLGFIAGL`
Result: satisfied

Ask: Try this sequence next: `IFFASFYYI`
Result: satisfied

Ask: Try this sequence next: `ELADTSLSGY`
Result: satisfied

---

target-of-assay: HLA-A*26:03
test-method-notes: IEDB peptide-MHC binding, purified MHC/direct/fluorescence; filed as Kd, often an IC50 or EC50 that approximates it; bounds were set here for any values at or beyond the usual limits of such assays
stated-conditions: source organism: Bacillus cereus NVH0597-99
pKd: −log10 of the molar value.
readout-kind: pKd

Ask: // returns reported pKd for input `REFEAQNVP`
Result: ≤ 4.70

---

target-of-assay: HLA-B*39:01
test-method-notes: IEDB peptide-MHC binding, purified MHC/competitive/fluorescence; filed as Kd, often an IC50 or EC50 that approximates it; bounds were set here for any values at or beyond the usual limits of such assays
stated-conditions: source organism: Vibrio vulnificus CMCP6
readout-kind: Kd

Ask: // returns reported Kd for input `WLAGFEPSE`
Result: ≥ 20 µM

---

target-of-assay: HLA-B*15:01
test-method-notes: IEDB peptide-MHC binding, purified MHC/direct/fluorescence; filed as Kd, often an IC50 or EC50 that approximates it; bounds were set here for any values at or beyond the usual limits of such assays
stated-conditions: source organism: Influenza A virus (A/quail/Hong Kong/FY298/00(H9N2))
readout-kind: Kd

Ask: Please state recorded Kd (tested on HLA-B*15:01) of `SYLIRALTL`
Result: ≥ 20 µM

---

target-of-assay: HLA-B*51:01
test-method-notes: IEDB peptide-MHC binding, purified MHC/competitive/radioactivity; filed as Kd, often an IC50 or EC50 that approximates it; bounds were set here for any values at or beyond the usual limits of such assays
stated-conditions: source organism: Lymphocytic choriomeningitis virus (strain WE)
pKd: −log10 of the molar value.
readout-kind: pKd

Ask: // returns reported pKd for input `MPEWVNFKF`
Result: ≤ 4.69

---

target-of-assay: HLA-B*27:20
test-method-notes: IEDB peptide-MHC binding, purified MHC/competitive/fluorescence; filed as Kd, often an IC50 or EC50 that approximates it; bounds were set here for any values at or beyond the usual limits of such assays
stated-conditions: source organism: Yersinia pestis CO92
readout-kind: pKd
On this scale, pKd is minus log10 of a concentration expressed in M (mol/L).

Ask: // returns reported pKd for input `YQLEMYHPI`
Result: 9.10
